# System: A549
# runDescription: Anticancer activity against human A549 cells incubated for 48 hrs by MTT assay
# Format: functional, cell-based
# testConditions: A549, 48 h
propertyName: IC50
Please report the result as a number followed by the unit.

## Task // query IC50 value for entry CC[C@@]1(O)C(=O)OCc2c1cc1n(c2=O)Cc2cc3cc(OCC(=O)OC(C)(C)C)ccc3nc2-1
## Result 60 nM

---

# System: HL-60
# runDescription: Anticancer activity against human HL-60 cells incubated for 48 hrs by MTT assay
# Assay type: functional, cell-based
# testConditions: HL-60, 48 h
propertyName: pIC50
The read-out pIC50 is expressed as -log10 of concentration in moles per litre.

## Task // query pIC50 value for entry CC[C@@]1(O)C(=O)OCc2c1cc1n(c2=O)Cc2cc3cc(OCC(=O)OC(C)(C)C)ccc3nc2-1
## Result 7.40
